Numbers sourced from patent US9505749B2.

Would you mind telling me the reported pEC50 of each entry?
- Test system: Axin2 accumulation in SW480 cells
- assay: Axin2 384 immunofluorescence assay
- Format: cell-based
- condition-context: Homo sapiens; SW480 cells, 24 hours; read-out: Axin2 384 IF EC50
Answers are plain numbers, as −log10 of the molar value.

Solved entries (count: 4):
1. O=C(CCCc1nc2ccccc2c(=O)[nH]1)N1CCC(n2c(=O)oc3cc(F)ccc32)CC1 [Example 53, trifluoroacetic acid]	6.44
2. O=C(CCCc1nc2ccccc2c(=O)[nH]1)N1CCC(c2nnc(-c3cccc(F)c3)o2)CC1 [Example 5]	6.11
3. O=C(CCSc1nc2ccccc2c(=O)[nH]1)N[C@H]1CC[C@H](c2nnc(-c3ccc(Cl)cc3)o2)CC1 [Example 125]	8.77
4. O=C(CSc1nc2ccccc2c(=O)[nH]1)N[C@H]1CC[C@H](c2nnc(-c3ccccc3)o2)CC1 [Example 96]	6.27

Batch of 3 molecules: report pEC50 for each.
1. O=C(CCCc1nc2ccccc2c(=O)[nH]1)N1CCC(c2nnc(-c3ccncc3)o2)CC1 [Example 19]
2. O=C(CCc1nc2ccccc2c(=O)[nH]1)N[C@H]1CC[C@H](c2nnc(-c3cccnc3)o2)CC1 [Example 136]
3. O=C(CCCc1nc2ccccc2c(=O)[nH]1)N1CCC(n2c(=O)[nH]c3ncccc32)CC1 [Example 47, trifluoroacetic acid]

RESULT:
[6.54, 5.92, 5.90]

Batch of 5 molecules: report pEC50 for each.
1. O=C(CCCc1nc2ccccc2c(=O)[nH]1)N[C@H]1CC[C@H](c2nnc(-c3ccc(F)c(Cl)c3)o2)CC1 [Example 35, 2,2,2-trifluoroacetate]
2. O=C(CCSc1nc2ccccc2c(=O)[nH]1)N[C@H]1CC[C@H](Oc2ccncc2)CC1 [Example 108]
3. O=C(CCCc1nc2ccccc2c(=O)[nH]1)N1CCC(n2nnc3ccccc32)CC1 [Example 75, trifluoroacetic acid]
4. O=C(CCCc1nc2ccccc2c(=O)[nH]1)N1CCC(n2c(=O)sc3ccccc32)CC1 [Example 50, trifluoroacetic acid]
5. O=C(CCCc1nc2ccccc2c(=O)[nH]1)N[C@H]1CC[C@H](Oc2ccccn2)CC1 [Example 56]

RESULT:
1. 7.97
2. 8.17
3. 6.42
4. 5.81
5. 6.58

====

Here's what we have: IC50 numbers for PARP1 (Homo sapiens (Human), UniProt P09874).
Numbers only, in µM.

Batch of 7 compounds: report IC50 for each.
1. N#Cc1ccccc1O[C@H]1CC[C@H](NC(=O)CCCc2nc3ccccc3c(=O)[nH]2)CC1
2. O=C(CCCc1nc2ccccc2c(=O)[nH]1)N1CCC(N2C(=O)C(F)(F)c3ccccc32)CC1
3. O=C(CCSCc1nc2ccccc2c(=O)[nH]1)N1CCC(c2nnc(-c3ccc(F)cc3)o2)CC1
4. O=C(CCCc1nc2ccccc2c(=O)[nH]1)N[C@H]1CC[C@H](c2nnc(-c3cccc(Cl)c3)o2)CC1 [Example 36, 2,2,2-trifluoroacetate]
5. COc1cccc(-c2nnc(C3CCN(C(=O)CCCc4nc5ccccc5c(=O)[nH]4)CC3)o2)c1
6. O=C(CCSc1nc2c(c(=O)[nH]1)CCCC2)N[C@H]1CC[C@H](c2nnc(-c3ccccc3)o2)CC1
7. O=C(CCCc1nc2ccccc2c(=O)[nH]1)N1CCC(c2n[nH]c3ccccc23)CC1

RESULT:
1: 5.96; 2: 4.53; 3: 8.29; 4: 1.14; 5: 1.69; 6: 3.86; 7: 1.98
